Experiment: Particle size analysis (granulometry) by laser dispersion
Assay type: physicochemical
Settings: dispersing fluid silicone oil
QUANTITY_KIND: Mode particle size (μm)
Give the value in μm but do not write μm after it.

MOLECULE | UNIT_LABEL | Mode particle size
COC1=C(OC)C(=O)C(C/C=C(\C)CC/C=C(\C)CC/C=C(\C)CC/C=C(\C)CC/C=C(\C)CC/C=C(\C)CC/C=C(\C)CC/C=C(\C)CC/C=C(\C)CCC=C(C)C)=C(C)C1=O.COC1=C(OC)C(=O)C(C/C=C(\C)CC/C=C(\C)CC/C=C(\C)CC/C=C(\C)CC/C=C(\C)CC/C=C(\C)CC/C=C(\C)CC/C=C(\C)CC/C=C(\C)CCC=C(C)C)=C(C)C1=O.Cc1cc(O)cc(O)c1.Cc1cc(O)cc(O)c1.Cc1cc(O)cc(O)c1 | μm | 31.5
COC1=C(OC)C(=O)C(C/C=C(\C)CC/C=C(\C)CC/C=C(\C)CC/C=C(\C)CC/C=C(\C)CC/C=C(\C)CC/C=C(\C)CC/C=C(\C)CC/C=C(\C)CCC=C(C)C)=C(C)C1=O.COC1=C(OC)C(=O)C(C/C=C(\C)CC/C=C(\C)CC/C=C(\C)CC/C=C(\C)CC/C=C(\C)CC/C=C(\C)CC/C=C(\C)CC/C=C(\C)CC/C=C(\C)CCC=C(C)C)=C(C)C1=O.Oc1ccc(O)cc1 [Compound P57-VI, Ubiquinone:hydroquinone (2:1)] | μm | 31.5
COC1=C(OC)C(=O)C(C/C=C(\C)CC/C=C(\C)CC/C=C(\C)CC/C=C(\C)CC/C=C(\C)CC/C=C(\C)CC/C=C(\C)CC/C=C(\C)CC/C=C(\C)CCC=C(C)C)=C(C)C1=O.COC1=C(OC)C(=O)C(C/C=C(\C)CC/C=C(\C)CC/C=C(\C)CC/C=C(\C)CC/C=C(\C)CC/C=C(\C)CC/C=C(\C)CC/C=C(\C)CC/C=C(\C)CCC=C(C)C)=C(C)C1=O.O.Oc1cc(O)cc(O)c1 | μm | 31.5

Here's the next entry for you.
Task: // Input: COC1=C(OC)C(=O)C(C/C=C(\C)CC/C=C(\C)CC/C=C(\C)CC/C=C(\C)CC/C=C(\C)CC/C=C(\C)CC/C=C(\C)CC/C=C(\C)CC/C=C(\C)CCC=C(C)C)=C(C)C1=O.O=C(O)c1ccc(O)cc1 . Output its Mode particle size only.
Result: 34.6
